test-name: Quantitative High-Throughput drug screen in 47 multiple myeloma cell lines against the NCATS MIPE library collection: OPM2_DSMZ cell viability assay (AID 1919872); also: nearly all actives have a fitted effect of over 30% in size
condition-context: OPM2 myeloma viability, CellTiter-Glo ATP luminescence, 48 h; series mostly up to 45.8 µM
Records with an inconclusive call do not appear. Active and inactive are the calls of the source. Calls follow the shape of the dose curve; as a rule, active = well fitted cell-killing curve with a large enough effect; inconclusive = small, poorly fitted or top-dose-only effect, or effect the other way; inactive = no such curve, though single readings can be large or run the other way.
Parameter call: string, one of t for active, f for inactive

Solved cases below.
{"columns": ["structure-smiles-string", "class-name"],
 "data": [
  ["Nc1ncnc2c1c(-c1cnc3[nH]ccc3c1)nn2C1CCCC1", "t"],
  ["O=C(Cc1ccc(-c2ccc(OCCN3CCOCC3)cc2)cn1)NCc1ccccc1", "t"],
  ["CC1(C)CCC(c2ccc(Cl)cc2)=C(CN2CCN(c3ccc(C(=O)NS(=O)(=O)c4ccc(N[C@H](CCN5CCOCC5)CSc5ccccc5)c(S(=O)(=O)C(F)(F)F)c4)cc3)CC2)C1", "t"],
  ["COc1c(N2C[C@@H]3CCCN[C@H]3C2)c(F)cc2c(=O)c(C(=O)O)cn(C3CC3)c12", "t"],
  ["CC(=O)Nc1nc(C)c(-c2ccc(Cl)c(S(=O)(=O)NCCO)c2)s1", "t"]
]}

q: Check the results log: what was the call for CN(C)CCCN=c1c2ccccc2n(C)c2[nH]c(=O)n(C)c(=O)c12 ?
a: t

q: For this compound, state the assay outcome: COc1cc(Nc2ncc(F)c(Nc3ccc4c(n3)N(COP(=O)(O)O)C(=O)C(C)(C)O4)n2)cc(OC)c1OC
a: t

q: Please state the recorded outcome for this compound: Cc1c(CN2CCN(S(C)(=O)=O)CC2)sc2c(N3CCOCC3)nc(-c3cnc(N)nc3)nc12
a: t

q: Record request — test call for CCCCCCCCCC(=O)N[C@@H](Cc1c[nH]c2ccccc12)C(=O)N[C@H](CC(N)=O)C(=O)N[C@@H](CC(=O)O)C(=O)N[C@@H]1C(=O)NCC(=O)N[C@@H](CCCN)C(=O)N[C@@H](CC(=O)O)C(=O)N[C@H](C)C(=O)N[C@@H](CC(=O)O)C(=O)NCC(=O)N[C@H](CO)C(=O)N[C@@H]([C@@H](C)CC(=O)O)C(=O)N[C@@H](CC(=O)c2ccccc2N)C(=O)O[C@@H]1C
a: f

q: Per the records of this test, what outcome belongs to Cc1cc(N2CCOCC2)cc2[nH]c(-c3c(NC[C@@H](O)c4cccc(Cl)c4)cc[nH]c3=O)nc12 ?
a: t

* * *

test-name: Cell Proliferation Assay against the TMD8 Cell Line (AID 651645);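 also: cells exposed to compound for 48 h before reading; 100% = DMSO and 0% = 9.2 µM bortezomib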
condition-context: TMD8 DLBCL cell line proliferation/viability; at 46.1 µM (top of the series)
Recorded viability (% of control) for the following molecules
Record the value in %, omitting the unit from your answer.

Recorded results for 3 molecules are shown here.
{"columns": ["molecule", "viability (% of control) [%]"],
 "data": [
  ["Cc1ccc(C(=O)Nc2ccc(CN3CCN(C)CC3)c(C(F)(F)F)c2)cc1C#Cc1cnc2cccnn12", 1.83],
  ["CCN(CC)CCCCNc1ncc2cc(-c3cc(OC)cc(OC)c3)c(NC(=O)NC(C)(C)C)nc2n1", 3],
  ["Nc1ccc(C(=O)c2cc3c(ccc4ccccc43)[nH]2)cc1", 28.2]
]}

q: Would you kindly share the measured viability (% of control) for COc1cc2c(Oc3ccc(-c4cnc(Nc5ccc(F)cc5)n(C)c4=O)cc3F)ccnc2cc1OCCCN1CCOCC1 ?
a: 1.34

q: Quick one: viability (% of control) for CC(C)(C)c1cc(NC(=O)Nc2ccc(-c3cn4c(n3)sc3cc(OCCN5CCOCC5)ccc34)cc2)no1 ?
a: 41.9

q: Bench note: what viability (% of control) did CC(C)c1ccccc1Cc1cc(C(=O)Nc2ccc(S(=O)(=O)c3ccccc3C(C)(C)C)cc2)c(O)c(O)c1O show?
a: 9.33

q: // viability (% of control) lookup, key: Nc1nc(Nc2ccc(S(N)(=O)=O)cc2)nn1C(=O)c1c(F)cccc1F
a: 6.19

q: What does the record list as viability (% of control) for COc1cc2ncn(-c3cc(OCc4ccccc4C(F)(F)F)c(C(N)=O)s3)c2cc1OC ?
a: 37.6

q: # get_value(readout='viability (% of control)', item= CCC[C@H](NC(=O)C(C#N)=Cc1cccc(Br)n1)c1ccccc1 )
a: 3.01

q: Using the record for CC(C)CC(=O)Nc1n[nH]c2c1CN(C(=O)C1CCN(C)CC1)C2(C)C , report its viability (% of control).
a: 4.73

q: What measured viability (% of control) goes with CNc1nccc(-c2cccnc2Oc2cc(C(=O)Nc3cccc(C(F)(F)F)c3)ccc2C)n1 ?
a: 6.17

q: So what's the measured viability (% of control) for this one? O=C(O)c1ccc2c(c1)nc(Nc1cccc(Cl)c1)c1ccncc12
a: 0.231

q: // returns reported viability (% of control) for input Nc1cc(C(F)(F)F)c(-c2cc(N3CCOCC3)nc(N3CCOCC3)n2)cn1
a: 3.22

q: viability (% of control) lookup needed for Cc1nc2cnc3ccc(C#Cc4cccnc4)cc3c2n1-c1ccc(C(C)(C)C#N)cc1 , thanks.
a: 0.22

q: Could you tell me which viability (% of control) is on file for COc1ccc(CC2SC(=O)NC2=O)cc1C(=O)NCc1ccc(C(F)(F)F)cc1 (stereo not drawn) ?
a: 71.9

q: Please report the recorded viability (% of control) for CN1CCN(c2cc(C(=O)Nc3ccc4c(c3)-c3c(c(C(N)=O)nn3-c3ccc(F)cc3)CC4)c(Cl)cn2)CC1 .
a: 0.112

q: So what does the record say about viability (% of control) for Clc1ccc2ncc(-c3cccc(NC4CNC4)n3)n2c1 ?
a: 1.46

* * *

System: CP262
test-name: qHTS profiling for inhibitors of Plasmodium falciparum proliferation (AID 504749); also: nearly all actives have a fitted effect of over 60% in size
condition-context: P. falciparum in erythrocytes, SYBR Green DNA, 72 h; series mostly up to 28.7 µM
Records with an inconclusive call do not appear. The source made the active and inactive calls. Calls follow the shape of the dose curve; as a rule, active = well fitted inhibition curve with a large enough effect; inconclusive = small, poorly fitted or top-dose-only effect; inactive = flat fitted curve, though single readings scatter.
Use one of these outcomes when replying: active, inactive

Field: example entries. Status: answers known.
{"columns": ["molecule", "class-name"],
 "data": [
  ["C[C@H]1C[C@@H]2[C@@H]([C@@H](O)C[C@@]3(C)[C@H]2CC[C@]3(O)C(=O)CO)[C@@]2(C)C=CC(=O)C=C12", "inactive"],
  ["COc1c(N2C[C@@H]3CCCN[C@H]3C2)c(F)cc2c(=O)c(C(=O)O)cn(C3CC3)c12", "inactive"],
  ["COC(=O)C1=C(C)NC(C)=C(C(=O)OCCN2CCN(C(c3ccccc3)c3ccccc3)CC2)C1c1cccc([N+](=O)[O-])c1 (centres undefined)", "active"],
  ["CCC1=C[C@@H]2CN(C1)Cc1c([nH]c3ccccc13)[C@@](C(=O)OC)(c1cc3c(cc1OC)N(C)[C@@H]1[C@@](O)(C(=O)OC)[C@H](OC(C)=O)[C@]4(CC)C=CCN5CC[C@]31[C@@H]54)C2", "active"],
  ["CC1(C)O[C@@H]2C[C@@H]3[C@H]4C[C@@H](F)C5=CC(=O)C=C[C@]5(C)[C@@]4(F)[C@@H](O)C[C@]3(C)[C@]2(C(=O)CO)O1", "inactive"]
]}

q: What classification did CC(C)(C)NC(=O)[C@H]1CN(Cc2cccnc2)CCN1C[C@@H](O)C[C@@H](Cc1ccccc1)C(=O)N[C@H]1c2ccccc2C[C@H]1O end up with in this test?
a: inactive

* * *

As shown below, each of these molecules has a reported Z-AUC value.
test-name: qHTS drug screen for cell cycle checkpoint inhibitors in PARPi-resistant BRCA-mutant ovarian cancer cell lines. (AID 1963452)
condition-context: PEO1/OlaR viability, CellTiter-Glo luminescence, 96 h; stronger effect = lower value
// print number alone

{"columns": ["molecule", "Z-AUC"],
 "data": [
  ["Cc1c(C)n(Cc2ccc(-c3ccccc3C(=O)O)cc2)c2ccc(C(=O)N[C@@H](C)c3ccc([N+](=O)[O-])cc3)cc12", 0.131],
  ["CCN(CC)CCCCNc1ncc2cc(-c3cc(OC)cc(OC)c3)c(NC(=O)NC(C)(C)C)nc2n1", -1.19],
  ["Cn1cncc1[C@@](N)(c1ccc(Cl)cc1)c1ccc2c(c1)c(-c1cccc(Cl)c1)cc(=O)n2C", -0.153]
]}

q: Name the reported Z-AUC value associated with the molecule COc1cc2nccc(Oc3ccc(NC(=O)C4(C(=O)Nc5ccc(F)cc5)CC4)cc3)c2cc1OC
a: -0.0071

q: Which value of Z-AUC has been reported for COc1cccc(Nc2c(C(N)=O)cnc3c(C)cc(S(=O)(=O)c4cccc(C(=O)N(C)C)c4)cc23)c1 in the records?
a: -0.363

q: Query (molecule): CN1CCN(Cc2ccc(NC(=O)Nc3ccc(Oc4cc(NC(=O)C5CC5)ncn4)cc3)cc2C(F)(F)F)CC1 ; field requested: Z-AUC
a: -1.5

q: Entry CN(c1ncccc1CNc1nc(Nc2ccc3c(c2)CC(=O)N3)ncc1C(F)(F)F)S(C)(=O)=O : reported Z-AUC = ?
a: -0.236

q: # lookup: Z-AUC of C=CC(=O)N1CCC[C@@H](n2nc(-c3ccc(Oc4ccccc4)cc3)c3c(N)ncnc32)C1
a: 0.296

q: // Z-AUC lookup, key: COc1cc2c(Oc3ccc4[nH]c(C)cc4c3F)ncnc2cc1OCCCN1CCCC1
a: -0.035

q: Request the reported Z-AUC associated with O=C(NCCCNc1nc(Nc2cccc(NC(=O)N3CCCC3)c2)ncc1I)c1cccs1
a: 1.15

q: // lookup Z-AUC for C[C@]12CC[C@H](O)CC1=CCC1C2CC[C@]2(C)C(n3cnc4ccccc43)=CCC12 (stereo partly drawn)
a: 0.586

q: // query Z-AUC value for entry NC1(Cc2ccc(Cl)cc2)CCN(c2ncnc3[nH]ccc23)CC1
a: -0.805

q: Return reported Z-AUC; argument: Cc1ccc(S(=O)(=O)Nc2cc(Cl)ccc2C(=O)Nc2nc(-c3ccccc3)cs2)cc1
a: -0.703
